# Target under test: UniProt:P31652
# Method description: In vitro binding affinity was determined against serotonin reuptake site of rat in presence of [3H]paroxetine radioligand
pKi: −log10 of the molar value.
# cutoff 8 applies to pKi; >= gives criterion met, < gives criterion not met

Decide: pKi of Clc1cccc2ccc(CC3CN=CN3)cc12 (stereo unspecified) >= 8?
criterion not met

For C1=NC[C@@H](C2C[C@@]23CCc2ccccc2C3)N1 (stereo partly specified) then?
criterion met

Queued: `C1=NC[C@@H]([C@H]2[C@@H]3CCc4ccccc4[C@@H]32)N1`
criterion not met

Item: NC1=NC(CC2=Cc3ccccc3CC2)CO1 (stereo unspecified)
criterion not met

----------
# Target under test: Sodium-dependent serotonin transporter (Rattus norvegicus, UniProt P31652)
# Sequence (P31652 whole entry): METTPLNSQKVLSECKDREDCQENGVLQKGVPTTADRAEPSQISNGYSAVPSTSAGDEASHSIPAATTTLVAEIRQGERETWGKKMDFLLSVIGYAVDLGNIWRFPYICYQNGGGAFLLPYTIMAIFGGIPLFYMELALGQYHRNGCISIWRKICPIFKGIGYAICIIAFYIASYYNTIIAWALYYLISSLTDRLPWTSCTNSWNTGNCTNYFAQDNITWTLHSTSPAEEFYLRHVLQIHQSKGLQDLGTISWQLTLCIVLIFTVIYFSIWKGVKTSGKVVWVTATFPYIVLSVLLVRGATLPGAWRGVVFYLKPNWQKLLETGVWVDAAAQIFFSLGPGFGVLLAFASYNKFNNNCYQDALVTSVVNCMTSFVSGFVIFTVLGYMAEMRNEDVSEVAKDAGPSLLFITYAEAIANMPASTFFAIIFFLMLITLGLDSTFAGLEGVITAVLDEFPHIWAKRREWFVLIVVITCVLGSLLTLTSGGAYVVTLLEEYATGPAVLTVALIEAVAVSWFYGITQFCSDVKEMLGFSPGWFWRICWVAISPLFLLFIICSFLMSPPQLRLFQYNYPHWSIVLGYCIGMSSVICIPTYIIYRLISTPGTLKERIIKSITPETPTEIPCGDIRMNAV
# Method description: In vitro binding affinity was determined against serotonin reuptake site of rat in presence of [3H]paroxetine radioligand
Endpoint label: pKi
// pKi here means minus log10 of the molar concentration (mol/L)

Please report the recorded pKi for COc1ccc2c(c1)C=C(CC1CN=CN1)CC2 (configuration not stated) .
6.70

// repeat for C1=NCC(Cc2cc3ccccc3o2)N1 (configuration not stated) and report
6.00

Also C1=NC(CC2CCc3ccccc3O2)CN1 (configuration not stated) ?
6.30

Queued: C1=NCC(CC2Cc3ccccc3C2)N1 (configuration not stated)
7.20

Another: C1=NC[C@@H](C2CC23Cc2ccccc2C3)N1 (some centres not stated)
6.40

Please give the result for C1=NCC(CC2COc3ccccc3O2)N1 (configuration not stated) too.
5.90

Also, Cc1ccc2c(c1)CCC(CC1CN=C(N)O1)=C2 (configuration not stated) please.
7.10

----------
Would you kindly list Log Ki for each of these compounds?
# Target under test: Adrenergic receptor alpha-2 (Rattus norvegicus, UniProt P22086+P19328+P22909)
# Method description: In vitro binding affinity against alpha-2 adrenergic receptor of rat in presence of [3H]-RX 821002 radioligand
# Format: protein assay

# get_value(readout= Log Ki, system= Adrenergic receptor alpha-2 (Rattus norvegicus, UniProt P22086+P19328+P22909)) for NC1=NCC(CC2=Cc3ccccc3CC2)O1 (stereo not given)
-6

What do we get for Fc1cccc2c1CC(CC1CN=CN1)C2 (stereo not given) ?
-8.9

Request: C1=NC[C@@H](C2C[C@@]23CCc2ccccc2C3)N1 (stereo not given in full)
-8.2

Let us now turn to COc1cccc2c1C=C(CC1CN=CN1)CC2 (stereo not given)
-7.6

Note, next up: CC1(C)CC(CC2CN=CN2)=Cc2ccccc21 (stereo not given)
-6

Thanks! And Fc1ccc2c(c1)CC(CC1CN=CN1)C2 (stereo not given) ?
-8.1

Another compound to check: Clc1cccc2c1C=C(CC1CN=CN1)CC2 (stereo not given)
-7.6

Now consider C1=NC[C@@H](C2CC23Cc2ccccc2C3)N1 (stereo not given in full) and answer again.
-7.1

Proceed to Clc1cccc2c1CC(CC1CN=CN1)CC2 (stereo not given)
-8.8

Same thing, different compound: `C[C@@]1(C[C@@H]2CN=CN2)CCc2ccccc2C1`
-7.1

How about this compound: Cc1cccc2c1C=C(CC1CN=CN1)CC2 (stereo not given)
-6.8

Same lookup for COc1ccc2c(c1)C=C(CC1CN=CN1)CC2 (stereo not given) , please.
-6.3

Lookup `CN[C@H](CC(C)C)C(=O)N[C@H]1C(=O)N[C@@H](CC(N)=O)C(=O)N[C@H]2C(=O)N[C@H]3C(=O)N[C@H](C(=O)N[C@H](C(=O)O)c4cc(O)cc(O)c4-c4cc3ccc4O)[C@H](O)c3ccc(c(Cl)c3)Oc3cc2cc(c3O[C@@H]2O[C@H](CO)[C@@H](O)[C@H](O)[C@H]2O[C@H]2C[C@](C)(N)[C@H](O)[C@H](C)O2)Oc2ccc(cc2Cl)[C@H]1O`
-6.9

Try this compound too: Cc1ccc2c(c1)C=C(CC1CN=CN1)CC2 (stereo not given)
-6.8

Next entry: NC1=NCC(CC2=Cc3c(Cl)cccc3CC2)O1 (stereo not given)
-6.2

Also `C1=C(CC2=NCCN2)CCc2ccccc21` ?
-8.5

And the next one, C1=NCC([C@H]2[C@@H]3Cc4ccccc4C[C@@H]32)N1 (stereo not given in full) ?
-6.3

Now this one: C1=NCC(CC2CCc3ccccc3C2)N1 (stereo not given)
-7.8

Now this one: FC(F)(F)c1ccc2c(c1)C=C(CC1CN=CN1)CC2 (stereo not given)
-6.4

Try this compound next: NC1=NC(CC2=Cc3ccccc3CC2)CN1 (stereo not given)
-6.5

Input Fc1ccc2oc(CC3CN=CN3)cc2c1 (stereo not given)
-7

What do you get for C1=NC(CC2CCc3ccccc3O2)CN1 (stereo not given) ?
-7.3

Cc1ccc2c(c1)C=C(CC1CN=C(N)O1)CC2 (stereo not given) ?
-5.8

Okay, and C1=NCC(CC2=Cc3ccccc3C2)N1 (stereo not given) ?
-7.8

Same lookup for C1=NC[C@]2(CC[C@@H]3Cc4ccccc4C[C@H]3C2)N1 (relative stereo) , please.
-8

Field entry: Cc1ccc2c(c1)CCC(CC1CN=CN1)=C2 (stereo not given)
-6.4

Ok, now C1=NC[C@H](C2CC23Cc2ccccc2C3)N1 (stereo not given in full)
-9.1

// same read-out, input: C1=NCC(CC2=Cc3ccccc3OC2)N1 (stereo not given)
-6.9

Follow-up entry: C1=NCC(Cc2cc3cc(-c4ccccc4)ccc3o2)N1 (stereo not given)
< -5

Query C1=NC[C@H](C[C@]23CCc4ccccc4C2C3)N1 (stereo not given in full) next
-7.3

Likewise for Cc1ccc2c(c1)CCC(CC1CN=C(N)O1)=C2 (stereo not given) ?
-5.8

Same question for Fc1cc2c(cc1F)CC(CC1CN=CN1)C2 (stereo not given) please.
-7.3

Thanks! And C1=NC[C@@H](C[C@]23CCc4ccccc4C2C3)N1 (stereo not given in full) ?
-7.2

Field entry: Cc1cc2c(cc1C)CC(CC1CN=CN1)C2 (stereo not given)
-7.6

Here is the next compound: `C[C@@]1(C[C@H]2CN=CN2)CCc2ccccc2C1`
-6.6

Next compound: NC1=NC(CC2=Cc3ccccc3CC2)CO1 (stereo not given)
-7.3

Field entry: Fc1ccc2c(c1)C=C(CC1CN=CN1)CC2 (stereo not given)
-6.7

Could you do the same for C1=NC[C@H](C2C[C@@]23CCc2ccccc2C3)N1 (stereo not given in full) , please?
-6.6

Check Clc1cccc2ccc(CC3CN=CN3)cc12 (stereo not given) too.
-7.5

// same read-out, input: C1=NC[C@@]2(CC[C@@H]3Cc4ccccc4C[C@H]3C2)N1 (relative stereo)
-6.1

Similarly, C1=NCC(CC2Cc3ccccc3C2)N1 (stereo not given) ?
-8.7

Further, for C1=NCC(CC2=Cc3ccccc3CC2)N1 (stereo not given) ?
-7

Another compound to look at: C1=NCC(CC2COc3ccccc3O2)N1 (stereo not given)
-7.5

Input `C1=NCC2(CC3(Cc4ccccc4C3)C2)N1`
-6.2

Also, C1=NCC(Cc2cc3ccccc3o2)N1 (stereo not given) please.
-7.9

Another compound to look at: `C1=NC[C@@H]([C@H]2[C@@H]3CCc4ccccc4[C@@H]32)N1`
-6.4

Would you mind doing CC1(CC2=Cc3ccccc3CC2)CN=CN1 (stereo not given) as well?
-6.1

Next entry: `C1=C(Cc2c[nH]cn2)CCc2ccccc21`
-8.9

Fc1cccc2c1C=C(CC1CN=CN1)CC2 (stereo not given) , same question.
-7.4

Next compound up: C1=NCC([C@@H]2[C@@H]3Cc4ccccc4C[C@@H]32)N1 (stereo not given in full)
-5.5

Hello, the source for this data is ChEMBL document CHEMBL1134363, in case you need it.
